- System: SNB-75
- assay-comment: NCI tumour cell line growth inhibition, 48 h
Calls of active or inactive are those of the source. Rule as the data show it: active = GI50 up to about 1.1 µM and inactive = higher.
Answer with one of the outcomes active, inactive

How was N=c1oc2c(Cl)cc(Cl)cc2cc1C(=O)Nc1ccccn1 classified in this test?
inactive

* * *

Each entry below carries its recorded GI50.
- Test system: SK-MEL-28
- assay-comment: NCI tumour cell line growth inhibition, 48 h
Activity calls are given as the source filed them. Cut-off read from the data, not from the text of the source: active = GI50 up to about 1.1 µM and inactive = higher.

Look over these answered cases.
>  <compound>
CC1CC(=O)C(CC(=O)O)[C@H]1C(C(=O)C(=O)Nc1cc(Cl)ccc1Cl)[N+](=O)[O-] (stereo partly drawn)

>  <test-readout>
GI50

>  <result>
> 100 µM (inactive)

$$$$
>  <compound>
COc1cc2c(cc1OC)C(Cl)C(c1ccc(F)cc1)=C2Cl (stereo not drawn)

>  <test-readout>
GI50

>  <result>
17.3 µM (inactive)

$$$$
>  <compound>
CC1(C)O[C@H]([C@H](O)c2nnc3ccc(Cl)nn23)[C@@H]([C@H]2COC(C)(C)O2)O1

>  <test-readout>
GI50

>  <result>
> 100 µM (inactive)

$$$$
>  <compound>
O=C1c2ccccc2C(=O)N1c1nc(-c2ccc(Cl)cc2)cc(N2N=C(c3ccc(Br)cc3)CC2c2ccccc2)n1 (stereo not drawn)

>  <test-readout>
GI50

>  <result>
7.73 µM (inactive)

$$$$
>  <compound>
NC(=O)c1cc(N(CCO)CCO)c([N+](=O)[O-])cc1[N+](=O)[O-]

>  <test-readout>
GI50

>  <result>
> 100 µM (inactive)

$$$$
>  <compound>
Cc1cc(Cl)ccc1NC1=NC(=O)C(CC(=O)Nc2ccc(Cl)cc2Cl)S1 (stereo not drawn)

>  <test-readout>
GI50

>  <result>
> 100 µM (inactive)

$$$$
>  <compound>
Cc1ccc(CC(C)N)cc1 (stereo not drawn)

>  <test-readout>
GI50

>  <result>
> 100 µM (inactive)

$$$$
>  <compound>
Cc1csc2[n+]1C(=O)/C(=C\c1ccc([N+](=O)[O-])cc1)S2

>  <test-readout>
GI50

>  <result>
36.9 µM (inactive)

$$$$
>  <compound>
C[N+](C)(C)CC1CCCC/C1=N\O (stereo not drawn)

>  <test-readout>
GI50

>  <result>
> 100 µM (inactive)

$$$$
>  <compound>
CCCCCCCCCCCCCC(=O)O.O=CC(O)C(O)C(OC1OC(CO)C(O)C(O)C1O)C(O)CO (stereo not drawn)

>  <test-readout>
GI50

>  <result>
> 100 µM (inactive)

$$$$

Observed GI50 on SK-MEL-28 for CN1C(Cl)=NS(=O)(=O)c2ccccc21 , please.
> 100 µM (inactive)

Follow-up item: C/C=C/C=C/C=C/C=C/C(=O)O
> 100 µM (inactive)

Follow-up item: CCOC(=O)COc1ccc(OCC(=O)OCC)c2c1C(=O)CCCC2=O
> 100 µM (inactive)

Follow-up item: C=CCC(CC=O)(C(=O)OCC)C(=O)OCC
> 100 µM (inactive)
